Each recorded value in this set is attributed to the RNAGym collection of RNA variant scans (doi:10.1073/pnas.2313332121).

B1: TPR t1 (parent)
chain: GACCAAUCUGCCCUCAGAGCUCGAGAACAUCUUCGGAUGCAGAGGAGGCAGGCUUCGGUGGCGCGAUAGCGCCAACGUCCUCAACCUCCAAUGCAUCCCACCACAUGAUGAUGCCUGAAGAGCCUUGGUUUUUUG

Variants of: B1
Assay: polymerase ribozyme fitness, log enrichment relative to wild type (log ratio); higher = more active; in vitro selection for triplet polymerase activity
experimentalEndpoint: polymerase ribozyme fitness (log ratio)

| mutationCode | measured |
| --- | --- |
| C12U A29G G71U G128A | -3.03 |
| G42A C53U G63U | -3.99 |
| C15G C98G G120A C123A C124A | -6.86 |
| G39U G63C A91C G113U A121C | -3.83 |
| G36U G42U | -3.46 |
| G71U C115G | -1.74 |
| C49A C72G | -0.887 |
